- ASSAY: Ratio of IC50 for human 5-HT1B to human 5-HT1D receptors

COMPOUND: CC(=O)Nc1ccc([C@@H](C)NCC2CCN(CCCc3c[nH]c4ccc(-n5cnnc5)cc34)CC2)cc1
Selectivity: 5.9
--
COMPOUND: CC(C)=CCN(C)C1CCN(CCCc2c[nH]c3ccc(-n4cnnc4)cc23)CC1
Selectivity: 82
--
COMPOUND: OC[C@@H](Cc1ccccc1)NC1CCN(CCCc2c[nH]c3ccc(-n4cnnc4)cc23)CC1
Selectivity: 12
--
COMPOUND: COC[C@H](NC1CCN(CCCc2c[nH]c3ccc(Cn4cncn4)cc23)CC1)c1ccc(F)cc1
Selectivity: 240
--
COMPOUND: COC[C@H](NC1CCN(CCCc2c[nH]c3ccc(-n4cnnc4)cc23)CC1)c1ccccc1
Selectivity: 70
--
COMPOUND: C[C@@H](NCC1CCN(CCCc2c[nH]c3ccc(-n4cnnc4)cc23)CC1)c1ccccc1
Selectivity: 10
--
COMPOUND: CC(=O)Nc1ccc(CCN(C)C2CCN(CCCc3c[nH]c4ccc(-n5cnnc5)cc34)CC2)cc1
Selectivity: 12
--
COMPOUND: c1ccc(CNC2CCN(CCCc3c[nH]c4ccc(-n5cnnc5)cc34)CC2)cc1
Selectivity: 26
--
COMPOUND: CC(CO)(NC1CCN(CCCc2c[nH]c3ccc(-n4cnnc4)cc23)CC1)c1ccccc1 (centres undefined)
Selectivity: 19
--
COMPOUND: CN(CC1CCN(CCCc2c[nH]c3ccc(-n4cnnc4)cc23)CC1)[C@@H](CO)c1ccccc1
Selectivity: 14
--
COMPOUND: O[C@@H]1Cc2ccccc2[C@H]1NC1CCN(CCCc2c[nH]c3ccc(-n4cnnc4)cc23)CC1
Selectivity: 32
--
COMPOUND: OCCC(NC1CCN(CCCc2c[nH]c3ccc(-n4cnnc4)cc23)CC1)c1ccccc1 (centres undefined)
Selectivity: 27
--
COMPOUND: CN(C)C[C@H](NC1CCN(CCCc2c[nH]c3ccc(-n4cnnc4)cc23)CC1)c1ccccc1
Selectivity: 8.7
--
COMPOUND: CC(NC1CCN(CCCc2c[nH]c3ccc(-n4cnnc4)cc23)CC1)c1ccc(F)cc1 (centres undefined)
Selectivity: 120
--
COMPOUND: O[C@H]1Cc2ccccc2C1NC1CCN(CCCc2c[nH]c3ccc(-n4cnnc4)cc23)CC1 (some centres undefined)
Selectivity: 8.1
--
COMPOUND: CC#CCN(C)C1CCN(CCCc2c[nH]c3ccc(-n4cnnc4)cc23)CC1
Selectivity: 8.3
--
COMPOUND: Oc1nc2ccccc2n1C1CCN(CCCc2c[nH]c3ccc(-n4cnnc4)cc23)CC1
Selectivity: 62
--
COMPOUND: CN(Cc1ccsc1)C1CCN(CCCc2c[nH]c3ccc(-n4cnnc4)cc23)CC1
Selectivity: 23
--
COMPOUND: CN(Cc1ccccc1)C1CCN(CCCc2c[nH]c3ccc(-n4cnnc4)cc23)CC1
Selectivity: 67
--
COMPOUND: c1ccc(C2CCCCN2C2CCN(CCCc3c[nH]c4ccc(-n5cnnc5)cc34)CC2)cc1 (centres undefined)
Selectivity: 220
--
COMPOUND: c1cc2[nH]cc(CCN3CCCC3)c2cc1-n1cnnc1
Selectivity: 9
--
COMPOUND: CN(Cc1cccs1)C1CCN(CCCc2c[nH]c3ccc(-n4cnnc4)cc23)CC1
Selectivity: 33
--
COMPOUND: C[C@H](O)[C@H](NC1CCN(CCCc2c[nH]c3ccc(-n4cnnc4)cc23)CC1)c1ccccc1
Selectivity: 20
--
COMPOUND: c1cc(CNC2CCN(CCCc3c[nH]c4ccc(-n5cnnc5)cc34)CC2)co1
Selectivity: 17
--
COMPOUND: C[C@@H](NC1CCN(CCCc2c[nH]c3ccc(-n4cncn4)cc23)CC1)c1ccccc1
Selectivity: 23
--
COMPOUND: NC1CCN(CCCc2c[nH]c3ccc(-n4cnnc4)cc23)CC1
Selectivity: 5.3
--
COMPOUND: CC(=O)Nc1ccc(CNC2CCN(CCCc3c[nH]c4ccc(-n5cnnc5)cc34)CC2)cc1
Selectivity: 15
--
COMPOUND: C=CCN(C)C1CCN(CCCc2c[nH]c3ccc(-n4cnnc4)cc23)CC1
Selectivity: 16
--
COMPOUND: OC[C@H](NC1CCN(CCCc2c[nH]c3ccc(-n4cncn4)cc23)CC1)c1ccccc1
Selectivity: 98
--
COMPOUND: OC[C@H](NC1CCN(CCCc2c[nH]c3ccc(Cn4cncn4)cc23)CC1)c1ccccc1
Selectivity: 57
--
COMPOUND: OC[C@H](Cc1ccccc1)NC1CCN(CCCc2c[nH]c3ccc(-n4cnnc4)cc23)CC1
Selectivity: 67
--
COMPOUND: c1cncc(CNC2CCN(CCCc3c[nH]c4ccc(-n5cnnc5)cc34)CC2)c1
Selectivity: 4
--
COMPOUND: CC(=O)Nc1ccc(C(=O)N(C)CC2CCN(CCCc3c[nH]c4ccc(-n5cnnc5)cc34)CC2)cc1
Selectivity: 2.4
--
COMPOUND: C[C@@H](NC1CCN(CCCc2c[nH]c3ccc(-n4ccnc4)cc23)CC1)c1ccccc1
Selectivity: 26
